Biological target: pre-pro-human insulin
Reported Selectivity values for the following proteins.

Check out these entries, answers already filled in.
trypsin variant SEQ ID NO: 60 (protein) IVGGYTCAANSIPYQVSLNSGSHRCGGSLINSQWVVSAAHCYKSRIQVRLGEHNIDVLEGNEQFINAAKIITHPNFNGNTLDNDIMLIKLSSPATLNSRVATVSLPSSCAAAGTECLISGWGNTKSSGSSYPSLLQCLKAPVLSDSSCKSSYPGQITGNMICVGFLEGGKDACQGDSGGPVVCNGQLQGIVSSGYGCAQKNKPGVYTKVCNYVNWIQQTIAAN : >90%
trypsin variant SEQ ID NO: 67 (protein) IVGGYTCAANSIPYQVSLNSGSHRCGGSLINSQWVVSAAHCYKSRIQVRLGEHNIDVLEGNEQFINAAKIITHPNFNGNTLDNDIMLIKLSSPATLNSRVATVSLPRSCAAAGTECLISGWGNTKSSGSSQPSLLQCLKAPVLSDSSCKSSYPGQITGNMICVGFLEGGKDACQGDSGGPVVCNGQLQGIVSSGYGCAQKNKPGVYTKVCNYVNWIQQTIAAN : >90%

Supply measured Selectivity of trypsin variant SEQ ID NO: 101 (protein) IVGGYTCAANSIPYQVSLNSGSHRCGGSLINSQWVVSAAHCYKSRIQVRLGEHNIHVLEGNEQFINAAKIITHPNFNPNTLDNDIMLIKLSSPATLNSNVATVSLPTSCAAAGTECLISGWGNTSSSGSSMPSLLQCLKAPVLSDSSCKSSYPGQITGNMICVGFLEGGADACQGDSGGPVVCNGQLQGIVSSGYGCAQKNKPGVYTKVCNYVNWIQQTIAAN in your reply.
>90%
